Every entry's value here was drawn from ChEMBL document CHEMBL4808186.

# PROCEDURE SUMMARY: in vivo
# APPLIED CONDITIONS: Sprague-Dawley, rat, iv, 5 mg/kg
# Description: Half life in Sprague-Dawley rat at 5 mg/kg, iv by UHPLC-MS analysis
MEASUREMENT KIND: half-life (min)
Give the quantity in min, number only.

Return value of half-life for input CC(=O)O[C@H]1C(=O)[C@@]2(C)[C@H]([C@H](OC(=O)c3ccccc3)[C@]3(O)C[C@H](OC(=O)[C@H](O)[C@@H](NC(=O)c4ccccc4)c4ccccc4)C(C)=C1C3(C)C)[C@]1(OC(C)=O)CO[C@@H]1C[C@@H]2O , no commentary. 7.2

====

# PROCEDURE SUMMARY: in vivo
# APPLIED CONDITIONS: Sprague-Dawley, rat, po, 20 mg/kg
# Description: Half life in Sprague-Dawley rat at 20 mg/kg, po by UHPLC-MS analysis
MEASUREMENT KIND: half-life (h)
Give the quantity in h, number only.

Return value of half-life for input CC(=O)O[C@H]1C(=O)[C@@]2(C)[C@H]([C@H](OC(=O)c3ccccc3)[C@]3(O)C[C@H](OC(=O)[C@H](O)[C@@H](NC(=O)c4ccccc4)c4ccccc4)C(C)=C1C3(C)C)[C@]1(OC(C)=O)CO[C@@H]1C[C@@H]2O , no commentary. 1.35
